Entries and their switch fluorescence ratio
Test system: ATP;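 further: ATP exposure 15 min at 22 °C before imaging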
assay_text: switch fluorescence ratio, 500 uM ATP over buffer (Cy3 cluster intensity, sum of 5 cycles each) (fold (ratio)); higher = stronger signal-on switching upon ATP binding; sequences stand for … in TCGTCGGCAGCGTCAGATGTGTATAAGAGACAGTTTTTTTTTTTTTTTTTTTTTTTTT…TC
assay_setup: aptamer strand: ATP DNA aptamer (quencher-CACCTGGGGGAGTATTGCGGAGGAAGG + anchor), 100 nM annealed; ATP concentration: 500 uM
Number, no unit, nothing else.

TGTTGGCACA    1.02
CTAGGGAAAC    1
TCGTTTCCGT    0.984
TATCGAAATT    0.981
GTCACCTTGA    1.01
TAGTCGAGAC    1.01
ATCTAGCGGA    1.02
GGGGGTCCGC    1.02
TGCTTCTTTG    0.979
AATATATCGC    0.977

In: Which switch fluorescence ratio value belongs to GTATGGATTC ?
Out: 0.987

* * *

Tested on: ATP;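 further: ATP exposure 15 min at 22 °C before imaging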
assay_text: switch fluorescence ratio, 500 uM ATP over buffer (Cy3 cluster intensity, sum of 5 cycles each) (fold (ratio)); higher = stronger signal-on switching upon ATP binding; sequences stand for … in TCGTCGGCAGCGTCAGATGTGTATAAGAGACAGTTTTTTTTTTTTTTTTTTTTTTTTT…TC
assay_setup: aptamer strand: ATP DNA aptamer (quencher-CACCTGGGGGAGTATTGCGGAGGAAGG + anchor), 100 nM annealed; ATP concentration: 500 uM
Where switch fluorescence ratio equals or exceeds 1, the correct label is Fulfilled; where it does not, the label is Not fulfilled.

// below: answered sequences
TCGGGTACGT    Not fulfilled
TTCTGGGGTG    Fulfilled
CGAAAAAAAA    Not fulfilled
ATTAGGTGGG    Fulfilled
TTCGGGGAAC    Fulfilled

Let's switch to this sequence now.
In: Check the entry TTCAAAACGC : does switch fluorescence ratio equal or exceed 1?
Out: Fulfilled

* * *

System: ATP;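 further: ATP exposure 15 min at 22 °C before imaging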
assay_text: switch fluorescence ratio, 500 uM ATP over buffer (Cy3 cluster intensity, sum of 5 cycles each) (fold (ratio)); higher = stronger signal-on switching upon ATP binding; sequences stand for … in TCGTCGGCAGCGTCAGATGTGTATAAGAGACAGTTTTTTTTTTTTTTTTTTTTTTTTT…TC
assay_setup: aptamer strand: ATP DNA aptamer (quencher-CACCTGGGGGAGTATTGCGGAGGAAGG + anchor), 100 nM annealed; ATP concentration: 500 uM
Entries and their switch fluorescence ratio
Number, no unit, nothing else.

ACTTTATGCT    1.01

In: Which switch fluorescence ratio value belongs to GGTTGTTACG ?
Out: 0.987

In: Which switch fluorescence ratio value belongs to AGGCTTGTTT ?
Out: 0.996

In: Which switch fluorescence ratio value belongs to CAAATGAAAG ?
Out: 1

In: Which switch fluorescence ratio value belongs to CAACGGGGGG ?
Out: 0.998

In: Which switch fluorescence ratio value belongs to GTAAAGGGGG ?
Out: 0.998

In: Which switch fluorescence ratio value belongs to GAGTATTATA ?
Out: 1

In: Which switch fluorescence ratio value belongs to GCGGAAAGGC ?
Out: 1.01

In: Which switch fluorescence ratio value belongs to AAGGGTATTT ?
Out: 1.01

These entries and their values trace back to the supplement of paper PMC10126150.
